Measured parameter: melting point

Record excerpt, results attached:
Request: Give the measured melting point of CC(C)c1ccc(NC(=O)C2CCCc3c(OCc4ccccc4)cccc32)cn1 (centres undefined) .
Result: 157 °C

Request: Give the measured melting point of Fc1cc2c(c(-c3c(Cl)cccc3Cl)c1)OC(CN1CCCC1)C2 (centres undefined) .
Result: 65 to 67 °C

Request: Give the measured melting point of Cc1nc(-c2ccccc2)c(CC(C)(C)C(=O)O)o1 .
Result: 129 to 130 °C

Request: Give the measured melting point of COC(=O)c1cc(O)c2nc(C)n(C)c2c1 .
Result: 286 °C

Request: Give the measured melting point of Cc1c(CC(=O)O)oc2ccc(Cc3ccccc3)cc12 .
Result: 149 to 150 °C

Request: Give the measured melting point of COc1ccc(C2(C(=O)Oc3ccc(C(=O)NO)cc3)CCCCC2)cc1 .
Result: 127 to 129 °C

Request: Give the measured melting point of Cn1cc(-c2ccc(F)cc2)nc1SCCSc1nc(-c2ccc(F)cc2)c(-c2ccc(F)cc2)[nH]1 .
Result: 202 to 205 °C

Request: Give the measured melting point of COC(=O)C(=CNc1c(-c2ccccc2)csc1C(=O)O)SC .
Result: 90 to 92 °C

// next entry
Request: Give the measured melting point of Cc1cc(S(N)(=O)=O)sc1S(=O)(=O)CCO .
Result: 144 to 148 °C
